# Assayed Target: Protein-tyrosine kinase 6 (Homo sapiens)
# Protocol Details: Inhibition of BRK (unknown origin) at 0.5 uM relative to control
Response key: fulfilled means inhibition >= 50%; not fulfilled means inhibition < 50%.

// known answers, use as guide
>>> print(df.to_string())
                              line_notation    label_class
0  CNC(=O)c1cc(Oc2ccc(NC(=O)c3nc(S(C)(=O)=O)sc3-c3ccc(F)cc3)cc2)ccn1  not fulfilled
1  CNC(=O)c1cc(Oc2ccc(NC(=O)c3nc(SC)[nH]c3-c3ccc(F)cc3)cc2)ccn1      fulfilled
2  CNC(=O)c1cc(Oc2ccc(NC(=O)c3nc(SC)n(CCN(C)C)c3-c3ccc(F)cc3)cc2)ccn1  not fulfilled

Confirm if inhibition reported for the compound "CNC(=O)c1cc(Oc2ccc(NC(=O)c3nc(SC)oc3-c3ccc(F)cc3)cc2)ccn1" is 50% or above.
fulfilled

Confirm if inhibition reported for the compound "CNC(=O)c1cc(Oc2ccc(NC(=O)c3nc(SC)oc3-c3ccc(F)cc3)cc2F)ccn1" is 50% or above.
fulfilled

Confirm if inhibition reported for the compound "CNC(=O)c1cc(Oc2ccc(NC(=O)c3nc(NC)sc3-c3ccc(F)cc3)cc2)ccn1" is 50% or above.
fulfilled

Confirm if inhibition reported for the compound "CNC(=O)c1cc(Oc2ccc(NC(=O)c3nc(C(F)(F)F)sc3-c3ccc(F)cc3)cc2)ccn1" is 50% or above.
fulfilled

Confirm if inhibition reported for the compound "CNC(=O)c1cc(Oc2ccc(NC(=O)c3n[nH]nc3-c3ccc(F)cc3)cc2)ccn1" is 50% or above.
not fulfilled

###

# Assayed Target: Tyrosine-protein kinase receptor TYRO3 (Homo sapiens)
# Sequence (whole entry): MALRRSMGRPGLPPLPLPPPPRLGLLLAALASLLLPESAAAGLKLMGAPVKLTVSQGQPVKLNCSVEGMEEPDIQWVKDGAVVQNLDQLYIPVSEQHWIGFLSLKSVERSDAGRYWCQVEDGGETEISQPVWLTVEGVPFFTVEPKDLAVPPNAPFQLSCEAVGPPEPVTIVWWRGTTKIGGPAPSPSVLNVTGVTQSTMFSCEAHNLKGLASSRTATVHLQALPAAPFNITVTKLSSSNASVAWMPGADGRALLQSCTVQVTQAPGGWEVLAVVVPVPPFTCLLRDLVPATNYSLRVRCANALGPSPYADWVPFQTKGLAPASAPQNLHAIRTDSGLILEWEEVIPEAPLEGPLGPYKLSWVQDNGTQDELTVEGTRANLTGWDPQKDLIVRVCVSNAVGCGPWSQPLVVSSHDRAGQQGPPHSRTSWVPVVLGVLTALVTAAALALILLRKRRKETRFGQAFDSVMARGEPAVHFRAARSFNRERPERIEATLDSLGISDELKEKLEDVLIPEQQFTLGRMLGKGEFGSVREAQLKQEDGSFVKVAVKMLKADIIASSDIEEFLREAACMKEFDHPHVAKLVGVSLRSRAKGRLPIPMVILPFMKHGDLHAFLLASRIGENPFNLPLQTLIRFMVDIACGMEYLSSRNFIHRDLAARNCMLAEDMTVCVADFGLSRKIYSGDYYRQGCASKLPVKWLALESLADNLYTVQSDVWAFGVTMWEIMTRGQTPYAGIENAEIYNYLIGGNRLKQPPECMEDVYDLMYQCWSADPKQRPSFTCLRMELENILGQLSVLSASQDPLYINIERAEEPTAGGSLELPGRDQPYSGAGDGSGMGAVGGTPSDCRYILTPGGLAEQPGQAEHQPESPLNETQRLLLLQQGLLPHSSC
# Protocol Details: Inhibition of TYRO3 (unknown origin) at 0.5 uM relative to control
Response key: Condition met means inhibition >= 70%; Condition not met means inhibition < 70%.

// known answers, use as guide
                              line_notation                            assayed_target        label_class
0  CNC(=O)c1cc(Oc2ccc(NC(=O)c3nc(NC)sc3-c3ccc(F)cc3)cc2)ccn1  Tyrosine-protein kinase receptor TYRO3 (Homo sapiens)  Condition not met
1  CNC(=O)c1cc(Oc2ccc(NC(=O)c3nc(SC)oc3-c3ccc(F)cc3)cc2)ccn1  Tyrosine-protein kinase receptor TYRO3 (Homo sapiens)      Condition met
2  CNC(=O)c1cc(Oc2ccc(NC(=O)c3nc(SC)[nH]c3-c3ccc(F)cc3)cc2)ccn1  Tyrosine-protein kinase receptor TYRO3 (Homo sapiens)      Condition met
3  CNC(=O)c1cc(Oc2ccc(NC(=O)c3nc(C(F)(F)F)sc3-c3ccc(F)cc3)cc2)ccn1  Tyrosine-protein kinase receptor TYRO3 (Homo sapiens)  Condition not met

Turning now to a further record.
Confirm if inhibition reported for the compound "CNC(=O)c1cc(Oc2ccc(NC(=O)c3nc(SC)n(CCN(C)C)c3-c3ccc(F)cc3)cc2)ccn1" is 70% or above.
Condition not met
